Tested on: CAL-33 (Oral Cavity Carcinoma)
Experiment: combination Emax (second highest fraction inhibited in the dose matrix, 72 h); higher = more inhibition; extreme values may be limits of the assay
Endpoint label: combination Emax

CN(CCO)CC[C@H](CSc1ccccc1)Nc1ccc(S(=O)(=O)NC(=O)c2ccc(N3CCC([C@@H](O)c4ccccc4-c4ccc(Cl)cc4)CC3)cc2)cc1S(=O)(=O)C(F)(F)F [AZD4320] + CN(C)CCCOc1ccc(-c2ccc3ncc4c(c3c2)n(C2CCOCC2)c(=O)n4C)cn1 [AZD0156] (first compound max 1 µM, 7x7, partner max 1 µM); 0.198
CN(C)CCCOc1ccc(-c2ccc3ncc4c(c3c2)n(C2CCOCC2)c(=O)n4C)cn1 [AZD0156] + CCN(CCO)CCCOc1ccc2c(Nc3cc(CC(=O)Nc4cccc(F)c4)[nH]n3)ncnc2c1 [AZD2811] (first compound max 1 µM, 7x7, partner max 1 µM); 0.71

Could you now consider this next compound?
input: Dear colleague, I am looking for the recorded combination Emax of the following compound: CS(=O)(=O)CCNCc1ccc(-c2ccc3ncnc(Nc4ccc(OCc5cccc(F)c5)c(Cl)c4)c3c2)o1 [Lapatinib] + C[C@@H](Oc1cc(-c2cnn(C3CCNCC3)c2)cnc1N)c1c(Cl)ccc(F)c1Cl [Crizotinib] (first compound max 10 µM, 7x7, partner max 10 µM)
output: 0.989

---

# maps each entry to its Bliss excess
Test system: NCI-H209 (Small Cell Lung Carcinoma)
Test: Bliss excess, mean over the matrix (fraction); higher = more synergy
Number, no unit, nothing else.

COc1cccc(OCCCN)c1-c1cc(Nc2cnc(C#N)cn2)n[nH]1 [Prexasertib] + CN(C)CCCOc1ccc(-c2ccc3ncc4c(c3c2)n(C2CCOCC2)c(=O)n4C)cn1 [AZD0156] (first compound max 1 µM, 7x7, partner max 1 µM); 0.0016

input: Dear colleague, I am looking for the recorded Bliss excess of the following compound: Cc1cc2ncnn2cc1Nc1ncc2c(n1)n(C1CCOCC1)c(=O)n2C [AZD7648] + C=CCn1c(=O)c2cnc(Nc3ccc(N4CCN(C)CC4)cc3)nc2n1-c1cccc(C(C)(C)O)n1 [AZD1775] (first compound max 10 µM, partner max 1 µM)
output: -0.0177

---

# maps each entry to its Bliss excess
Tested on: KYAE-1 (Esophageal Adenocarcinoma)
Assay: Bliss excess, mean over the matrix (fraction); higher = more synergy
Number, no unit, nothing else.

input: Dear colleague, I am looking for the recorded Bliss excess of the following compound: Cc1cc2ncnn2cc1Nc1ncc2c(n1)n(C1CCOCC1)c(=O)n2C [AZD7648] + O=C(c1cc(Cc2n[nH]c(=O)c3ccccc23)ccc1F)N1CCN(C(=O)C2CC2)CC1 [Olaparib] (first compound max 10 µM, 7x7, partner max 10 µM)
output: -0.0362

input: Dear colleague, I am looking for the recorded Bliss excess of the following compound: Cn1cnc2c(F)c(Nc3ccc(Br)cc3Cl)c(C(=O)NOCCO)cc21 [Selumetinib] + CCN(CCO)CCCOc1ccc2c(Nc3cc(CC(=O)Nc4cccc(F)c4)[nH]n3)ncnc2c1 [AZD2811] (first compound max 10 µM, 7x7, partner max 1 µM)
output: -0.0212

---

Test system: SNU-16 (Gastric Carcinoma)
Assay: combination Emax (second highest fraction inhibited in the dose matrix, 72 h); higher = more inhibition; extreme values may be limits of the assay
Endpoint label: combination Emax
Number, no unit, nothing else.

// known answers, use as guide
C[C@@H](Oc1cc(-c2cnn(C3CCNCC3)c2)cnc1N)c1c(Cl)ccc(F)c1Cl [Crizotinib] + CC1=C(C(=CC=C1)Cl)NC(=O)C2=CN=C(S2)NC3=CC(=NC(=N3)C)N4CCN(CC4)CCO [Dasatinib] (first compound max 10 µM, 7x7, partner max 2 µM); 0.909
NC1(C(=O)N[C@@H](CCO)c2ccc(Cl)cc2)CCN(c2ncnc3[nH]ccc23)CC1 [Capivasertib] + CC(=O)c1c(C)c2cnc(Nc3ccc(N4CCNCC4)cn3)nc2n(C2CCCC2)c1=O [Palbociclib] (first compound max 10 µM, 7x7, partner max 10 µM); 0.623
CCN(CCO)CCCOc1ccc2c(Nc3cc(CC(=O)Nc4cccc(F)c4)[nH]n3)ncnc2c1 [AZD2811] + C=CCn1c(=O)c2cnc(Nc3ccc(N4CCN(C)CC4)cc3)nc2n1-c1cccc(C(C)(C)O)n1 [AZD1775] (first compound max 1 µM, partner max 1 µM); 0.916

input: Dear colleague, I am looking for the recorded combination Emax of the following compound: COc1nnc2ccc(N3CCC(c4ccc(OCCN5CCN(C)C(=O)[C@H]5C)cc4)CC3)nn12 [AZD5153] + C=CCn1c(=O)c2cnc(Nc3ccc(N4CCN(C)CC4)cc3)nc2n1-c1cccc(C(C)(C)O)n1 [AZD1775] (first compound max 1 µM, partner max 1 µM)
output: 0.871
